System: Aspergillus fumigatus
PROTOCOL DESCRIPTION: Antifungal activity against Aspergillus fumigatus 231 after 24 hrs by broth microdilution method
Format: functional
CONDITIONS USED: Aspergillus fumigatus, 231, 24 h
Each record here notes measured MIC.
Write the value in µM as a bare number.

Reference set (3 entries):
{"columns": ["MOLECULE", "REPORTED MEASUREMENT"],
 "data": [
  ["Cc1cc(NS(=O)(=O)c2ccc(/N=C/c3cccc(Cl)c3)cc2)no1", 500],
  ["Cc1cc(NS(=O)(=O)c2ccc(N)cc2)no1 [SULFAMETHOXAZOLE]", 250],
  ["Cc1cc(NS(=O)(=O)c2ccc(NC(=O)c3cccc(Cl)c3)cc2)no1", 500]
]}

Proceed to the following item.
Query: MIC; subject: Cc1cc(NS(=O)(=O)c2ccc(NC(=O)c3cc(Cl)ccc3O)cc2)no1
500

The measurements presented in this section are drawn from ChEMBL document CHEMBL1955763.
